assay_system: recombinant human DHFR (Homo sapiens, UniProt P00374)
Sequence (P00374 whole entry): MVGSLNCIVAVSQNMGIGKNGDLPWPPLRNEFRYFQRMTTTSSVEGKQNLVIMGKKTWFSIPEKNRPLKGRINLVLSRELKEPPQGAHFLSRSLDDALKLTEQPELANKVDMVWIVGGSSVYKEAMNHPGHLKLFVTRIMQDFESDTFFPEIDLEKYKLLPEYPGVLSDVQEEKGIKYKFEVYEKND
assay_notes: Dihydrofolate reductase (DHFR) inhibition assay (assay kit)
test_context: mean of three assays ± S.D.
pIC50: −log10 of the molar value.
endpoint_label: pIC50

# compound, endpoint_label, measurement
data = [
    ("COc1cc(NC(=O)c2cc(OC)c(OC)c(OC)c2)cc(OC)c1OC [MB3]", "pIC50", 5.04),
    ("COc1cc(C(=O)Nc2cccc(NC(=O)c3cc(OC)c(OC)c(OC)c3)c2)cc(OC)c1OC [JW1]", "pIC50", 5.07),
    ("COc1ccc(C(=O)Nc2cccc(NC(=O)c3ccc(OC)c(OC)c3)c2)cc1OC [JW3]", "pIC50", 5.01),
    ("COc1ccc(C(=O)Nc2ccc(NC(=O)c3ccc(OC)cc3)cc2)cc1 [JW8]", "pIC50", 4.92),
    ("COc1cc(CNC(=O)c2cc(OC)c(OC)c(OC)c2)cc(OC)c1OC [MB4]", "pIC50", 4.70),
    ("COc1cc(OC)cc(C(=O)Nc2ccc(NC(=O)c3cc(OC)cc(OC)c3)cc2)c1 [JW6]", "pIC50", 5.33),
]

----------
assay_system: recombinant human DHFR (Homo sapiens, UniProt P00374)
assay_notes: Dihydrofolate reductase (DHFR) inhibition assay (assay kit)
test_context: mean of three assays ± S.D.
Labelling field: enter criterion met if recorded IC50 is less than 8 µM. Enter criterion not met if it equals or exceeds that cut-off.

# molecule, assay_system, category
data = [
    ("COc1cc(C(=O)Nc2cccc([N+](=O)[O-])c2)cc(OC)c1OC [MB1]", "recombinant human DHFR (Homo sapiens, UniProt P00374)", "criterion not met"),
    ("COc1cc(OC)cc(C(=O)Nc2cccc(NC(=O)c3cc(OC)cc(OC)c3)c2)c1 [JW2]", "recombinant human DHFR (Homo sapiens, UniProt P00374)", "criterion not met"),
    ("COc1ccc(C(=O)Nc2cccc(NC(=O)c3ccc(OC)cc3)c2)cc1 [JW4]", "recombinant human DHFR (Homo sapiens, UniProt P00374)", "criterion not met"),
    ("COc1cc(C(=O)Nc2ccc(NC(=O)c3cc(OC)c(OC)c(OC)c3)cc2)cc(OC)c1OC [JW5]", "recombinant human DHFR (Homo sapiens, UniProt P00374)", "criterion met"),
]
